Test system: SK-MEL-28 melanoma
Test: NCI tumour cell line growth inhibition, 48 h
Assign TGI to each entry below.

The reported TGI value, SK-MEL-28 melanoma, for O=C1/C(=C/c2ccccc2)CN(CCC(=O)N2C/C(=C\c3ccccc3)C(=O)/C(=C/c3ccccc3)C2)C/C1=C\c1ccccc1 reads 74.5 µM

Result for Cc1ccc(/C=N/NC2=NCCN2)s1 , tested on SK-MEL-28 melanoma, TGI: > 100 µM

Note to self: TGI of C[Si](C)(C)/C=C\CCCN1C(=O)CCC1=O with SK-MEL-28 melanoma was > 100 µM

# value of TGI, SK-MEL-28 melanoma, item O=C(NC1CCN(Cc2ccccc2)CC1)c1cc(C(=O)NC2CCN(Cc3ccccc3)CC2)cc(C(=O)NC2CCN(Cc3ccccc3)CC2)c1 = 9.5 µM

Item: CN(C)CCNC1=CC(=O)c2c(O)ccc(O)c2C1=O | System: SK-MEL-28 melanoma | TGI: 26.3 µM

O=c1[nH]c2ccc(CC(=S)N3CCN(c4ccccc4)CC3)cc2o1 tested on SK-MEL-28 melanoma gave TGI: > 100 µM

The recorded TGI with SK-MEL-28 melanoma for COC1OC(CBr)C(OC(c2ccccc2)(c2ccccc2)c2ccccc2)C(OC(c2ccccc2)(c2ccccc2)c2ccccc2)C1OC(c1ccccc1)(c1ccccc1)c1ccccc1 (stereo not given) was > 100 µM

The measured TGI that CC(=O)NNC(=S)/N=C/c1c(O)cc(C)oc1=O showed for SK-MEL-28 melanoma is > 100 µM

Per the reported SK-MEL-28 melanoma data, C/C(=N\O)c1cccc(Nc2nc3ccccc3c3occc23)c1 has TGI of 29.2 µM

// compound CC1=C(/C=C/C2=CC(=C\C(=O)O)/CC(C3=C(C)CCCC3(C)C)C2)C(C)(C)CCC1 (stereo not given) , assay SK-MEL-28 melanoma, TGI value: 29.5 µM

# value of TGI, SK-MEL-28 melanoma, item COc1cc2c(=O)n(CCCn3ccnc3)c3c4cc5c(cc4ccc3c2cc1OC)OCO5 = > 100 µM

The reported TGI value, SK-MEL-28 melanoma, for N=c1oc2ccc(Cl)cc2cc1C(=O)NCc1ccccc1 reads > 100 µM

Known value: SK-MEL-28 melanoma TGI of the compound c1ccc2c(c1)nnn2CNc1ccc(N2CCOCC2)cc1 equals > 100 µM

Record CC1=C(C(=O)NCC(C)O)CC(C(=O)NCC(C)O)=C(C)N1 (stereo not given) has SK-MEL-28 melanoma TGI equal to > 100 µM

Bench note, SK-MEL-28 melanoma: entry CCOP(=O)(OCC)/C(C#N)=C/c1cccn1N(C)C , its TGI = > 100 µM

Readout TGI for S=C(c1c[nH]c2ccccc12)N1CCN(c2ccccc2)CC1 , test system SK-MEL-28 melanoma, was > 100 µM

Given the compound CC(=O)NC1C(OCc2ccccc2)OC(COC(=O)CCCCCNc2ccc([N+](=O)[O-])c3[nH]c4ccc(O)cc4c(=O)c23)C(O)C1OC(C)C(=O)N[C@@H](C)C(=O)N[C@H](CCC(=O)OCc1ccccc1)C(N)=O (stereo not given in full) and test system SK-MEL-28 melanoma, the measured TGI is 6.9 µM

Tested system SK-MEL-28 melanoma; TGI recorded for O=C1CCCCC[C@]12SC[C@H]1CON=C12 was > 100 µM

Observed TGI, SK-MEL-28 melanoma, CN(C1=NS(=O)(=O)N=C(N(C)c2ccccc2)O1)c1ccccc1 : 43.3 µM

Test item O=C(/C=C\Nc1ccccc1O)C(Cl)(Cl)Cl ; SK-MEL-28 melanoma; reported TGI was > 100 µM

Recorded values, source PubChem BioAssay (NCI).
